TEST CONDITIONS: siRNA; further: test system not given here
HELM strings list units from the 5' end as sugar, base in round brackets, then linkage (d deoxyribose, r ribose, m 2'-O-methyl, p phosphodiester). Strings are as the collection lists them, not checked against the first reports. ss, as = sense and antisense strand; [fl2r] = 2'-fluoro
Here, each record is paired with measured target mRNA knockdown data.

# SUBSTANCE, target mRNA knockdown [%]
rows = [
    ("RNA1{m(C)p.r(G)p.m(C)p.r(C)p.m(C)p.r(C)p.m(C)p.r(C)p.m(U)p.r(C)p.m(A)p.r(A)p.m(G)p.r(C)p.m(U)p.r(A)p.m(C)p.r(C)p.m(G)p.r(T)p.r(T)}|RNA2{r(C)p.r(G)p.r(G)p.r(U)p.r(A)p.r(G)p.r(C)p.r(U)p.r(U)p.r(G)p.r(A)p.r(G)p.r(G)p.r(G)p.r(G)p.r(G)p.r(G)p.r(C)p.r(G)p.r(T)p.r(T)}$$$RNA1{StrandType:ss}|RNA2{StrandType:as}$", 44),
    ("RNA1{[fl2r](G)p.r(G)p.[fl2r](A)p.r(A)p.[fl2r](G)p.r(A)p.[fl2r](A)p.r(G)p.[fl2r](A)p.r(U)p.[fl2r](A)p.r(G)p.[fl2r](A)p.r(G)p.[fl2r](C)p.r(A)p.[fl2r](U)p.r(C)p.[fl2r](C)p.r(T)p.r(T)}|RNA2{r(G)p.r(G)p.r(A)p.[fl2r](U)p.r(G)p.r(C)p.r(U)p.r(C)p.[fl2r](U)p.r(A)p.r(U)p.r(C)p.r(U)p.r(U)p.r(C)p.r(U)p.r(U)p.r(C)p.r(C)p.r(T)p.r(T)}$$$RNA1{StrandType:ss}|RNA2{StrandType:as}$", 13),
]

----------
TEST CONDITIONS: siRNA
HELM strings list units from the 5' end as sugar, base in round brackets, then linkage (d deoxyribose, r ribose, m 2'-O-methyl, p phosphodiester). Strings are as the collection lists them, not checked against the first reports. ss, as = sense and antisense strand; [s4r] = 4'-thioribose; [fl2r] = 2'-fluoro
Here, each record is paired with measured target mRNA knockdown data.

# SUBSTANCE, target mRNA knockdown (%)
measured = [
    ("RNA1{r(A)p.m(G)p.r(A)p.m(U)p.r(G)p.m(U)p.m(U)p.m(C)p.m(U)p.m(C)p.r(G)p.m(U)p.r(A)p.r(A)p.m(G)p.r(G)p.r(A)p.m(C)p.r(G)p.r(T)p.r(T)}|RNA2{r(C)p.r(G)p.r(U)p.r(C)p.r(C)p.r(U)p.r(U)p.r(A)p.r(C)p.r(G)p.r(A)p.r(G)p.r(A)p.r(A)p.r(C)p.r(A)p.r(U)p.r(C)p.r(U)p.r(T)p.r(T)}$$$RNA1{StrandType:ss}|RNA2{StrandType:as}$", 53),
    ("RNA1{[s4r](C)p.[s4r](G)p.[s4r](U)p.[s4r](A)p.[s4r](C)p.[s4r](G)p.r(C)p.r(G)p.r(G)p.r(A)p.r(A)p.r(U)p.r(A)p.[s4r](C)p.[s4r](U)p.[s4r](U)p.[s4r](C)p.[s4r](G)p.[s4r](A)p.r(T)p.r(T)}|RNA2{[s4r](U)p.[s4r](C)p.r(G)p.r(A)p.r(A)p.r(G)p.r(U)p.r(A)p.r(U)p.r(U)p.r(C)p.r(C)p.r(G)p.r(C)p.r(G)p.r(U)p.r(A)p.[s4r](C)p.[s4r](G)p.r(T)p.r(T)}$$$RNA1{StrandType:ss}|RNA2{StrandType:as}$", 28.6),
    ("RNA1{r(G)p.r(G)p.r(A)p.r(A)p.r(G)p.r(U)p.r(C)p.m(C)p.m(A)p.r(C)p.r(C)p.m(U)p.m(U)p.r(C)p.r(U)p.r(C)p.r(C)p.r(G)p.r(A)p.r(T)p.r(T)}|RNA2{r(U)p.r(C)p.r(G)p.r(G)p.r(A)p.r(G)p.r(A)p.r(A)p.r(G)p.r(G)p.m(U)p.r(G)p.r(G)p.r(A)p.r(C)p.r(U)p.r(U)p.r(C)p.r(C)p.r(T)p.r(T)}$$$RNA1{StrandType:ss}|RNA2{StrandType:as}$", 51),
    ("RNA1{r(A)p.r(A)p.r(C)p.r(C)p.[fl2r](C)p.r(A)p.r(C)p.r(C)p.r(A)p.r(C)p.r(A)p.r(G)p.r(C)p.[fl2r](U)p.r(A)p.r(G)p.r(A)p.r(A)p.r(C)p.r(U)p.r(U)}|RNA2{r(G)p.r(U)p.r(U)p.r(C)p.[fl2r](U)p.[fl2r](A)p.r(G)p.r(C)p.[fl2r](U)p.r(G)p.r(U)p.r(G)p.r(G)p.r(U)p.r(G)p.r(G)p.r(G)p.r(U)p.r(U)p.r(U)p.r(U)}$$$RNA1{StrandType:ss}|RNA2{StrandType:as}$", 86),
    ("RNA1{r(C)p.[fl2r](U)p.r(A)p.r(A)p.r(G)p.r(C)p.r(C)p.r(U)p.r(G)p.r(U)p.r(U)p.r(U)p.r(C)p.r(U)p.r(U)p.r(C)p.r(C)p.r(U)p.r(C)p.r(T)p.r(T)}|RNA2{r(G)p.r(A)p.r(G)p.r(G)p.r(A)p.r(A)p.r(G)p.r(A)p.r(A)p.r(A)p.r(C)p.r(A)p.r(G)p.r(G)p.r(C)p.r(U)p.r(U)p.r(A)p.r(G)p.r(T)p.r(T)}$$$RNA1{StrandType:ss}|RNA2{StrandType:as}$", 82),
]
